Where these numbers come from: PubChem BioAssay (NCI)

system: NCI-H460 lung; assay: NCI-60 one-dose screen, 48 h (100 = growth as untreated, 0 = no growth, -100 = all killed); settings: 10 µM
This is part of a sample that, as a whole, favours compounds with a hit. Of some 83,000 tested, about 20% had one in any assay.
So basically, if growth comes in under 90% it's Fulfilled, and if it's 90% or more it's Not fulfilled.

Does the reported growth of the following compound sit strictly below 90%? COc1cc(-c2nn(-c3cccc(NC(=O)CN4CCOCC4)c3)cc2-c2cccnc2)ccc1Cl Fulfilled

Answer whether the compound CNC(=O)c1cc(Oc2ccc3c(c2)sc2nc(-c4ccc(N)cc4)cn23)ccn1 has growth strictly less than 90% Fulfilled

In the record for COc1ccc2nc(-c3ccc(Cl)cc3)cc(-c3nnc(SC/C(=N\O)c4ccccc4)n3-c3ccccc3)c2c1 , is growth less than 90%? Fulfilled

Find out if reported growth for O=C1CCn2c1c(O)c1ccccc1c2=O is less than 90% Not fulfilled

growth strictly < 90% for this compound? CCOC(=O)c1cocc1C(=O)O Not fulfilled

# strict comparison: is reported growth < 90%? input = CN(C)CCCSc1ccccc1NC1=C(Cl)C(=O)C(Nc2ccccc2SCCCN(C)C)=C(Cl)C1=O Not fulfilled

Check if growth falls below 90% for Cc1ccccc1N1C(=O)c2cc(S(N)(=O)=O)c(Cl)cc2NC1C (stereo not given) . Not fulfilled

growth strictly < 90% for this compound? CC(C)(C)OC(=O)CN1CCc2c(sc3ncnc(N/N=C/c4cccc5ccccc45)c23)C1 Fulfilled

I wonder whether COc1cccc(C2C(C#N)=C(N)Oc3cc(N)ccc32)c1 (stereo not given) has growth below 90%. Can you tell? Fulfilled

In plain terms, does COc1cc(-c2nn(-c3cccc(NC(=O)NCCNS(=O)(=O)c4ccc(Cl)cc4)c3)cc2-c2ccncc2)ccc1Cl come in under 90% for growth? Fulfilled
